Value source: PubChem BioAssay (NCI)

ASSAY TEXT: NCI Yeast Anticancer Drug Screen. Data for the bub3 strain (AID 167)
ASSAY CONDITIONS: S. cerevisiae bub3 mutant strain, at 5.0 µM (retest, dose inferred, filed as 0.5), active compounds read high
About 79,000 compounds went through this panel and 15% of them were active in at least one assay; those are over-represented in the sample as a whole.
QUANTITY KIND: growth inhibition (%)

INSERT INTO assay_data (molecule, quantitative_result) VALUES
  ('O=[C-]c1ccccc1[C-]=O.[Pd+2].c1ccc([PH+](c2ccccc2)c2ccccc2)cc1.c1ccc([PH+](c2ccccc2)c2ccccc2)cc1', 4),
  ('COc1cc(/C=C/[N+](=O)[O-])c(OC)cc1Br', 24),
  ('NC(=O)/C=C/c1ccc([As]=O)cc1 (stereo not given)', 4),
  ('O=[N+]([O-])c1ccc(CS(=O)(=O)C(Cl)Cl)o1', -7),
  ('CCCCSc1ccc(C(SCCN(CC)CC)c2ccccc2)cc1 (stereo not given)', 36),
  ('C/C(=N\N=C(/[Se])N1CCC(C)CC1)c1ccccn1', 6),
  ('COC([CH2][Hg])CN1C(=O)c2cc(C)c(C)cc2C1=O (stereo not given)', 99),
  ('[Cl][Pt][Cl].c1ccc([AsH](CC[AsH](c2ccccc2)c2ccccc2)c2ccccc2)cc1', 99),
  ('N#Cc1cc([N+](=O)[O-])c(Cl)c([N+](=O)[O-])c1Cl', 99),
  ('ClCCN(CCCl)c1ccc(C2N(Cc3ccc(Cl)cc3)CCN2Cc2ccc(Cl)cc2)cc1', 22);

====

ASSAY TEXT: NCI Yeast Anticancer Drug Screen. Data for the bub3 strain (AID 167)
ASSAY CONDITIONS: S. cerevisiae bub3 mutant strain, at 50.0 µM, active compounds read high
The panel holds about 79,000 compounds, 15% with a hit somewhere; the sample as a whole holds those more often.
QUANTITY KIND: growth inhibition (%)

INSERT INTO results (compound, quantity_kind, unit_spec, quantitative_result) VALUES
  ('CC1c2[nH]c3ccccc3c2CCN1C (stereo not drawn)', 'growth inhibition', '%', -6.95),
  ('C[CH2][Sn]([CH2]C)([O]C(=O)c1ccccc1F)[O]C(=O)c1ccccc1F', 'growth inhibition', '%', 22.8),
  ('c1cc[c]([Ge]([c]2ccccc2)[c]2ccccc2)cc1.c1cc[c]([Ge]([c]2ccccc2)[c]2ccccc2)cc1', 'growth inhibition', '%', 4.8),
  ('C/C(=N\Nc1ccccc1)C(CN(C)C)C(c1ccccc1)c1c(O)c2ccccc2oc1=O (stereo not drawn)', 'growth inhibition', '%', 83.6),
  ('O=[N+]([O-])c1ccc(Cl)c([N+](=O)[O-])c1', 'growth inhibition', '%', 98.7),
  ('O=c1oc2cc(O)ccc2c(O)c1C(c1ccccn1)c1c(O)c2ccc(O)cc2oc1=O', 'growth inhibition', '%', -17.4),
  ('CN1CCN(Cc2ccccc2)CC1CC#N (stereo not drawn)', 'growth inhibition', '%', 2.65),
  ('c1cnc[c]([Hg][c]2cccnc2)c1', 'growth inhibition', '%', 88.8),
  ('Cc1nc2cccc(F)c2c(=O)n1-c1nnc(C2CC2)s1', 'growth inhibition', '%', -41.2),
  ('CC1(C(=O)O)C2[Se]c3[se]ccc3C2C1(C)C(=O)O (stereo not drawn)', 'growth inhibition', '%', 1.8),
  ('O=C1CC2OCC=C3CN4CCC56c7ccccc7N1C5C2C3CC46O (stereo not drawn)', 'growth inhibition', '%', 30.7),
  ('C(#C[PH+](c1ccccc1)c1ccccc1)c1ccccc1.C(#C[PH+](c1ccccc1)c1ccccc1)c1ccccc1.C(#C[PH+](c1ccccc1)c1ccccc1)c1ccccc1.[C-]#[O+].[C-]#[O+].[C-]#[O+].[Cr]', 'growth inhibition', '%', 88.2),
  ('COc1cc[c]([Pb]([c]2ccc(Cl)cc2)([c]2ccc(Cl)cc2)[c]2ccc(OC)cc2)cc1', 'growth inhibition', '%', -4.25),
  ('COC(=O)C1ON(c2ccccc2)C2c3ccccc3-c3ccccc3C12 (stereo not drawn)', 'growth inhibition', '%', 67.2),
  ('CCC[CH2][Sn]([CH2]CCC)[S]CC(N)C(=O)O (stereo not drawn)', 'growth inhibition', '%', 98),
  ('CC[CH2][Sn]([CH2]CC)[CH2]CC.CC[CH2][Sn]([CH2]CC)[CH2]CC', 'growth inhibition', '%', 98.6),
  ('Cc1cc(N(CCCl)CCCl)ccc1C=Nc1ccccc1C(=O)O', 'growth inhibition', '%', 2.65),
  ('[CH3][Sn]([c]1ccccc1)[c]1ccccc1', 'growth inhibition', '%', 1.2),
  ('N#CCCCCCBr', 'growth inhibition', '%', 17.9),
  ('CC(=O)OC1=CCC2(C)C(CCC3C4CCC(OC(C)=O)C4(C)CCC32)C1=O (stereo not drawn)', 'growth inhibition', '%', 73.5),
  ('O=c1[nH]cc(N=Cc2ccccc2Cl)c(=O)[nH]1.[Cl][Pt][Cl]', 'growth inhibition', '%', 1.55),
  ('CC1(OO)CCC2CC1C2(C)C (stereo not drawn)', 'growth inhibition', '%', 99.5),
  ('Cn1c(O)c(C=N)c(=O)n(C)c1=O', 'growth inhibition', '%', 0.8),
  ('COc1c[c]([Hg][O]C(C)=O)c(OC)c(NC(=O)CC(C)=O)[c]1[Hg][O]C(C)=O', 'growth inhibition', '%', 90.8),
  ('NNc1ccccc1', 'growth inhibition', '%', 96.2),
  ('O=C([CH-]C(=O)c1ccccc1)c1ccccc1.O=C([CH-]C(=O)c1ccccc1)c1ccccc1.[La+3].[OH-].[OH3+]', 'growth inhibition', '%', 91.2),
  ('c1ccc(C(c2ccccc2)c2cccnc2)cc1', 'growth inhibition', '%', 91.7),
  ('CC1([N+](=O)[O-])COP(=O)(NCc2ccccc2)OC1 (stereo not drawn)', 'growth inhibition', '%', 6.2),
  ('CCOP(=O)(OCC)OCC', 'growth inhibition', '%', -1.15),
  ('C/C1=N\NC(=O)c2ccccc2C(=O)N/N=C(\C)c2cccc1n2.O=[N+]([O-])[O-].[Zn+2]', 'growth inhibition', '%', -38),
  ('CN(C)CCc1ccc(Cl)cc1Cl', 'growth inhibition', '%', 3.75),
  ('Oc1c(Cl)cc(Cl)cc1C1N(Cc2ccc(N(CCCl)CCCl)cc2)CCCN1Cc1ccc(N(CCCl)CCCl)cc1', 'growth inhibition', '%', 3.7),
  ('CC(C)(C)C1=C(Br)C(OC(=O)C(F)(F)F)(C(C)(C)C)OP1(=O)c1ccccc1 (stereo not drawn)', 'growth inhibition', '%', -10.3),
  ('CC[C@@]1(O)C(=O)OCc2c1cc1n(c2=O)Cc2cc3c(OC)cccc3nc2-1', 'growth inhibition', '%', 70.8),
  ('O=C([O-])C(F)(F)C(F)(F)F.[C-]#[O+].[C-]#[O+].[C-]#[O+].[C-]#[O+].[C-]#[O+].[Re]', 'growth inhibition', '%', 91.5),
  ('NCC(O)c1ccc2c(c1)OCO2 (stereo not drawn)', 'growth inhibition', '%', -1.4),
  ('Cc1cc(C=C2C(=O)NC(=S)NC2=O)c(C)n1-c1ccccc1', 'growth inhibition', '%', 8.6),
  ('CC(C)(C)c1ccc(C(C)(C)OO)cc1', 'growth inhibition', '%', 10.2),
  ('O=C(NC1CCCCC1)c1c(O)[nH]c(=S)[nH]c1=O', 'growth inhibition', '%', -4.9),
  ('C=C(C)C(=O)OCC12CCC(C)=CC1OC1C(=O)C(OC(=O)C(=C)C)C2(C)C12CO2 (stereo not drawn)', 'growth inhibition', '%', -10.1),
  ('O=C(O)C(F)(F)C(F)(F)C(=O)O', 'growth inhibition', '%', -3.15),
  ('O=C(O)C(=O)O.[Ti].[c-]1[c-][c-][cH-][c-]1.[c-]1[c-][c-][cH-][c-]1', 'growth inhibition', '%', 24),
  ('CC(C)[CH2][Sn](=[O])[c]1ccccc1', 'growth inhibition', '%', 99.5);
